# assayed system: Voltage-dependent T-type calcium channel subunit alpha-1H (Homo sapiens, UniProt O95180);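 also: channel activity triggered by adding a high calcium stimulation buffer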
# Sequence (O95180 whole entry): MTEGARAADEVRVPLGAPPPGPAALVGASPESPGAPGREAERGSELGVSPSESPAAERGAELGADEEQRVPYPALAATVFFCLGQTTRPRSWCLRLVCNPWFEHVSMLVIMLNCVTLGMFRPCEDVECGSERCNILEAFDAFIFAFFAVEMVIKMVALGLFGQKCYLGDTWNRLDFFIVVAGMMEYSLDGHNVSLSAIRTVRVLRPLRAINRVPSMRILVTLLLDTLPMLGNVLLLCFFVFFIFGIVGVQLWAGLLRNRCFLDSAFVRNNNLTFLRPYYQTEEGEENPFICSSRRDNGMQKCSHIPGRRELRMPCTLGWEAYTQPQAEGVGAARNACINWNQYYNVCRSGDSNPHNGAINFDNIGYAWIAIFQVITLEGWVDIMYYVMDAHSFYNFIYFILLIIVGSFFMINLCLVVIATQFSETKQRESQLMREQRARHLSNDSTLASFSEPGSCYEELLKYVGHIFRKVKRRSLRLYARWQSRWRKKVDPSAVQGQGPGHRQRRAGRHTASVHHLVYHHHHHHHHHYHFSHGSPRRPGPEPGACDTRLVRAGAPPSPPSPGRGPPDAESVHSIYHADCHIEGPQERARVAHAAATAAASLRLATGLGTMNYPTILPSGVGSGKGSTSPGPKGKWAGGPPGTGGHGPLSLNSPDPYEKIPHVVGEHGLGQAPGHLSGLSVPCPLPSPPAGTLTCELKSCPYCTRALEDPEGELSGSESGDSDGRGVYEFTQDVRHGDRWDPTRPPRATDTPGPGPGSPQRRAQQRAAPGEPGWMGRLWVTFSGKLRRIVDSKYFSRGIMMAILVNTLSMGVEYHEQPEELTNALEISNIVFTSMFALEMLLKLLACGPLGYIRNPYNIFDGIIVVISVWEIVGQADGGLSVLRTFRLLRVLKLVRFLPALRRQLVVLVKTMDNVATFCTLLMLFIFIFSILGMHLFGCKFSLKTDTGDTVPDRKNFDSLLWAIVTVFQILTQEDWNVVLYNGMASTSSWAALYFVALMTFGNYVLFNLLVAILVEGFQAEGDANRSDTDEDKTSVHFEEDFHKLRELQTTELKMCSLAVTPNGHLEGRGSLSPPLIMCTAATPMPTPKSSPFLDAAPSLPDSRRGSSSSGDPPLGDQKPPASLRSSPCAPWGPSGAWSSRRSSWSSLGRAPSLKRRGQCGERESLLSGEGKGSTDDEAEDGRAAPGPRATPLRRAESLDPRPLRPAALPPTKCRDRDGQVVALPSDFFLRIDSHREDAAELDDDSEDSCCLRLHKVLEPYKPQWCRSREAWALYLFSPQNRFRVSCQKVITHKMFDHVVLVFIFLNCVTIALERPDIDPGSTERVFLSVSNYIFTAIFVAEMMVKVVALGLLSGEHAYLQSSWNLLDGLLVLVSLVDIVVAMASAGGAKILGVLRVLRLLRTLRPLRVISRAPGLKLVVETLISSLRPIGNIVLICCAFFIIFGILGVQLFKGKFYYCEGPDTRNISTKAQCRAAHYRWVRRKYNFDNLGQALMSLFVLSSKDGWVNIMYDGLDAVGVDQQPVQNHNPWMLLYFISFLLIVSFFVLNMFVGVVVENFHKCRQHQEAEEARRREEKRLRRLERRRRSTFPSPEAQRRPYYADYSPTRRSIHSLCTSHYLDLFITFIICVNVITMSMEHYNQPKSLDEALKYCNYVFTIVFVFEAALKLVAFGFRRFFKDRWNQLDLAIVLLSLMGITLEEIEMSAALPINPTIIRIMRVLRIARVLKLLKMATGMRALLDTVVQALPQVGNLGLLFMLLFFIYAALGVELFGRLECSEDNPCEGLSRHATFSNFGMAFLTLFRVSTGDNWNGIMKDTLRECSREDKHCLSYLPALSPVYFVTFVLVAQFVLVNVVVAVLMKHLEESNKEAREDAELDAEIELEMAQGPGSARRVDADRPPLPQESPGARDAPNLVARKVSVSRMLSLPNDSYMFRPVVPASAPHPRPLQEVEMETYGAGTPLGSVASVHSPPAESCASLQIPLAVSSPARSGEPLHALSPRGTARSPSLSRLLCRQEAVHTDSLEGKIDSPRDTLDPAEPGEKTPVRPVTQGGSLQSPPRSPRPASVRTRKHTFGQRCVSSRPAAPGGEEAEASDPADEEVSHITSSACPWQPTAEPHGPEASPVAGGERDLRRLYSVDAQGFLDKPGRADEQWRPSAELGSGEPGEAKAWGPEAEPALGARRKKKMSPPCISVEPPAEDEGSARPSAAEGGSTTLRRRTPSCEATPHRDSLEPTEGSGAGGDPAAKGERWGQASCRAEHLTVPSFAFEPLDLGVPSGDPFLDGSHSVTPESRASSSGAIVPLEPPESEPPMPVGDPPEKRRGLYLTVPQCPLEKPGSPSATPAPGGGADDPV
# Format: functional
Active and inactive are the calls of the source.
parameter measured: EC50

Prompt: For COc1ccc(NC(=O)c2ccco2)cc1NC(=O)c1cccc(OC(C)C)c1 , what is its reported EC50?
Response: 8.24 µM (active)

Prompt: // lookup EC50 for O=C1CC(SCCc2nc3ccccc3[nH]2)C(=O)N1c1ccc(Cl)cc1 (stereo not given)
Response: 613 µM (active)

Prompt: Given O=C(NC1CCCCC1)N(Cc1ccccc1)Cc1ccco1 , state its recorded EC50.
Response: 3.68 µM (active)

Prompt: Which EC50 value is on record for CCc1cccc(NC(=O)C[S+]([O-])Cc2nc(-c3ccc(C)cc3)oc2C)c1 (stereo not given) ?
Response: 3.17 µM (active)

Prompt: // returns reported EC50 for input O=C(NCCc1csc(-c2ccc(C(F)(F)F)cc2)n1)c1cccs1
Response: 4.14 µM (active)

====

# assayed system: Replicative DNA helicase DnaB (Mycobacterium tuberculosis, UniProt P9WMR3)
# Sequence (P9WMR3 whole entry): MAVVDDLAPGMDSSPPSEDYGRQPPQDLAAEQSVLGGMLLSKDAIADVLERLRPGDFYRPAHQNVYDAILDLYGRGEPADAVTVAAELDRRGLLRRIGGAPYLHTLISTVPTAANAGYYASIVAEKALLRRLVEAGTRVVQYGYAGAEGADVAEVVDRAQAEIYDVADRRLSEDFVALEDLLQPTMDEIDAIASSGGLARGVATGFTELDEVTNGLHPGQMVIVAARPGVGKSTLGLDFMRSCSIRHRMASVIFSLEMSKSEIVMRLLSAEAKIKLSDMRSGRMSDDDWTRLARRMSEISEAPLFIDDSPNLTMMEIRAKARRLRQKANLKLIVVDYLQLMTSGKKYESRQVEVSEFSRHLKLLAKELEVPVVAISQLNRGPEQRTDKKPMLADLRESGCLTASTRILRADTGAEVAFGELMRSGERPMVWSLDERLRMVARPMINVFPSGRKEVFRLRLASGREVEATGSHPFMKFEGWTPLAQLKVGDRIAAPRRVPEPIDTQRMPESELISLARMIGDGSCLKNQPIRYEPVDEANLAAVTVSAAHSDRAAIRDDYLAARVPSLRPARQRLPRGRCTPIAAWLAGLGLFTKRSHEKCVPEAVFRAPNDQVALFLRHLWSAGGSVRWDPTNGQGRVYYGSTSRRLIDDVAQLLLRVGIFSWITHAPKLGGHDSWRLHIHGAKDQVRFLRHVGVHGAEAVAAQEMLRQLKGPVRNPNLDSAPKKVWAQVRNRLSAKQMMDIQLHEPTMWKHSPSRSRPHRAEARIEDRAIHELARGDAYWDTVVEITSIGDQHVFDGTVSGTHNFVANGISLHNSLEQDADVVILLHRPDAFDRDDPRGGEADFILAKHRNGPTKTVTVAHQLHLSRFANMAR
# protocol details: DnaB intein splicing inhibitors, dose response, biochemical, cell-free fluorescence (AID 449749)
# Format: functional
Activity calls are given as the source filed them.
Would you mind answering with one of these outcomes? active, inactive

Prompt: Hi, do you know how Nc1ccc2nc(N3CCOCC3)sc2c1 came out in this test?
Response: active

Prompt: Field: outcome | Entry: CC1=NNC(=O)C1C(c1ccc(F)cc1)C(C#N)C#N (stereo unspecified)
Response: active

Prompt: Which outcome did this test record for the molecule O=[N+]([O-])c1ccc(Oc2cccc(Br)c2)c2ccncc12 ?
Response: inactive

Prompt: How did this test come out for Cc1n[nH]c2c1C1(CCN(C(=O)OCc3ccccc3)CC1)C(C#N)=C(N)O2 ?
Response: active

Prompt: Give the logged outcome of this assay for the following molecule: CCC1=Nc2cc(C(=O)NCCN3CCCC3)ccc2Sc2ccccc21
Response: inactive

Prompt: Which outcome was entered for the molecule Cc1cc2[nH]ncc2cc1NC(=S)NC(=O)c1ccccc1 in this test?
Response: active

Prompt: Could you check what this test reported for Cn1cnc([N+](=O)[O-])c1Sc1nnc(-c2cccnc2)n1C ?
Response: active

Prompt: Look up the recorded call for CCCCCCCN(C(=O)CCl)c1ccccc1C in this test.
Response: active

Prompt: What call does the record list for Cc1[nH]n(-c2ccccc2)c(=O)c1C(C[N+](=O)[O-])c1ccc(F)cc1 (stereo unspecified) ?
Response: active

Prompt: Look up the recorded call for CC(CCc1ccccc1)NC(=O)COC(=O)c1cc(NS(=O)(=O)c2ccc(Cl)c([N+](=O)[O-])c2)ccc1O (stereo unspecified) in this test.
Response: active

Prompt: // outcome(item) with item = O=c1c2ccccc2nc2n1CCS2(=O)=O
Response: active

====

# assayed system: Sentrin-specific protease 8 (Homo sapiens, UniProt Q96LD8);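 also: luminescence read-out of SENP8 inhibition, dose-response confirmation following an ultra-high-throughput screen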
# Sequence (Q96LD8 whole entry): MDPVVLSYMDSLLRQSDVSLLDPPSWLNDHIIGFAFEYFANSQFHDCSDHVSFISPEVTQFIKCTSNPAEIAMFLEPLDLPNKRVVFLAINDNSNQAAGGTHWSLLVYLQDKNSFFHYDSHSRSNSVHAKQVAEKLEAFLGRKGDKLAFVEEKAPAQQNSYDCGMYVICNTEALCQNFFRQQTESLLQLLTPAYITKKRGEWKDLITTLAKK
# Assay type: functional
Active and inactive are the calls of the source.
The reply should be one of these categories: YES = active, NO = inactive

Prompt: Hi team, can someone confirm the assay call for O=[N+]([O-])c1ccc(-c2nc3cc([N+](=O)[O-])ccc3[nH]2)cc1 ?
Response: YES

Prompt: Can you look up the reported call for CC(=O)c1sc(N/N=C\c2ccccc2O)nc1C for me?
Response: YES

Prompt: What did this assay record as the result for COc1cc(C#Cc2ccc3cc(CCCO)oc(=O)c3c2)cc(OC)c1 ?
Response: YES

Prompt: Assay outcome for Cc1ccc(-c2nnc(Nc3ccccc3)[nH]2)cc1 : what was it?
Response: NO

Prompt: For O/C(=C\c1nc2ccccc2[nH]1)c1cccs1 , what call appears in the results of this test?
Response: YES

Prompt: # lookup: test call for O=C(/C=C/c1cccs1)c1ccc(N2CCOCC2)cc1
Response: YES

Prompt: I would be grateful if you could indicate the recorded call for O=C(Nc1ccc(NC(=O)c2cccs2)c(Cl)c1)c1cccs1 .
Response: YES

Prompt: State the result this test recorded for O=C(Cc1ccccc1F)Nc1ccc(SC(F)F)cc1 .
Response: NO

====

# assayed system: Rac GTPase-activating protein 1 (Homo sapiens, UniProt Q9H0H5)
# Sequence (Q9H0H5 whole entry): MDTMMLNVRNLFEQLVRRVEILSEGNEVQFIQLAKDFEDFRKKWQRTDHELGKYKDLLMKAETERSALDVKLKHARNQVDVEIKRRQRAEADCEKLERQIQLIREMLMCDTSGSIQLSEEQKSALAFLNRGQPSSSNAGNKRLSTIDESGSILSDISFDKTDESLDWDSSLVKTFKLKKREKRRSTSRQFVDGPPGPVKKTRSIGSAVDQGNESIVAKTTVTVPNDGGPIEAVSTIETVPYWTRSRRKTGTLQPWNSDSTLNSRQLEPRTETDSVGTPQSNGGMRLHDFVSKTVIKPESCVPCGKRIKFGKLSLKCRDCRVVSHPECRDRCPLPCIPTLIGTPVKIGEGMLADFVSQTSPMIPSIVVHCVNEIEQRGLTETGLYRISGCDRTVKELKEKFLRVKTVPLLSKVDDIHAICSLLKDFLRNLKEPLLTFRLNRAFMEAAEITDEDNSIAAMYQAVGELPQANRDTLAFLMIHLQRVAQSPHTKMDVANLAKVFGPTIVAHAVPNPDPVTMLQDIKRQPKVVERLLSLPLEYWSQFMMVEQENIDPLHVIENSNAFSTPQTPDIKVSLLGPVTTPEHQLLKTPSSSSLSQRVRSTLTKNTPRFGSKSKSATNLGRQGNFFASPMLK
# protocol details: MgcRacGAP GTPase-activating activity inhibitors, confirmation, biochemical, ADP Hunter fluorescence, primary and confirmatory (AID 624330)
# Assay type: functional
Calls of active or inactive are those of the source.
I'd appreciate it if you could supply IC50 values for the items below.

Prompt: Look up IC50 with Rac GTPase-activating protein 1 (Homo sapiens, UniProt Q9H0H5) for this compound: CC1CC(=O)N(c2ccc(NCCc3ccc(O)cc3)c([N+](=O)[O-])c2)C1=O (stereo not given)
Response: 52.9 µM (active)

Prompt: Form: Entry = CCOC(=O)C1=C(C)NC(=O)CC1c1cc2c(cc1[N+](=O)[O-])OCO2 (stereo not given) | System = Rac GTPase-activating protein 1 (Homo sapiens, UniProt Q9H0H5) | IC50 = ____
Response: 100 µM (active)

Prompt: What value of IC50 on Rac GTPase-activating protein 1 (Homo sapiens, UniProt Q9H0H5) does CCn1c2ccccc2c2cc(N)ccc21 have?
Response: 64.1 µM (active)

Prompt: Missing value: IC50, Rac GTPase-activating protein 1 (Homo sapiens, UniProt Q9H0H5), entry CN(C)c1ccc(NC(S)=NCC2CCCO2)cc1 (stereo not given) . Fill in?
Response: 85.6 µM (active)

Prompt: What value of IC50 on Rac GTPase-activating protein 1 (Homo sapiens, UniProt Q9H0H5) does COCc1cc([S+]([O-])c2ccc(Cl)cc2)nc(C)n1 (stereo not given) have?
Response: 87.8 µM (active)

Prompt: Look up IC50 with Rac GTPase-activating protein 1 (Homo sapiens, UniProt Q9H0H5) for this compound: N/C(=N\N=C\c1ccc(O)cc1)c1nonc1N
Response: 23.4 µM (active)

Prompt: API: value(readout= IC50, system= Rac GTPase-activating protein 1 (Homo sapiens, UniProt Q9H0H5), query= C=CCn1c(=O)/c(=C/c2ccc(O)cc2)s/c1=C(/C#N)c1nnc2n1CCCCC2 )
Response: 58.7 µM (active)

Prompt: Request: IC50, test system Rac GTPase-activating protein 1 (Homo sapiens, UniProt Q9H0H5), entry CCOC(=O)c1c(C)nsc1S
Response: 56.6 µM (active)

Prompt: Give Rac GTPase-activating protein 1 (Homo sapiens, UniProt Q9H0H5) IC50 for COc1ccccc1N=NNc1ccccc1OC
Response: 90.3 µM (active)

Prompt: What measured IC50 is associated with CCN(Cc1ccccc1)c1ccc(/C=N/N2CCOCC2)cc1 on Rac GTPase-activating protein 1 (Homo sapiens, UniProt Q9H0H5)?
Response: 63.2 µM (active)

====

# assayed system: Caspase-7 (Homo sapiens)
# Sequence (P55210 24-198 limits assumed): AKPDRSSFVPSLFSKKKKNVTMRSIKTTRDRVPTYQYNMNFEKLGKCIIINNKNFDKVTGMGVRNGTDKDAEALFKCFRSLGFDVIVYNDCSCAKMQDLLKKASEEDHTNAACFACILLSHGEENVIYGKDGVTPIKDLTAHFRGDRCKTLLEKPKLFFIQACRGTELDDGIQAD
# Sequence (P55210 207-303 limits assumed): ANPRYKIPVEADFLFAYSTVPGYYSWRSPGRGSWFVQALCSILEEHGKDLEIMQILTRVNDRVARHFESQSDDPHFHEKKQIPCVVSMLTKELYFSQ
# protocol details: human caspase-7 inhibitors, dose response, selectivity assay for caspase-6 inhibitor project, biochemical, DEVD-R110 fluorescence, cherry-pick (AID 743295)
# Assay type: functional, cell-based
Calls of active or inactive are those of the source.
// allowed return values: YES (active), NO (inactive)

Prompt: Tell me the assay call for COc1ccc(NS(=O)(=O)c2ccc3c(c2)[C@H]2C=CC[C@H]2[C@@H](c2ccc(C(=O)O)cc2)N3)cc1 please.
Response: NO

Prompt: What was the test verdict on COc1cc(NC(C)CCCN)c2ncccc2c1 (stereo not given) [PRIMAQUINE PHOSPHATE] ?
Response: YES

Prompt: GET /call?item= Nc1c(O)cccc1C(=O)O returns the recorded outcome of this test.
Response: YES

Prompt: Can you look up the reported call for CC(C)(C)c1ccc(NC(=O)COC(=O)c2ccc([N+](=O)[O-])s2)cc1 for me?
Response: YES

Prompt: Per the assay record, what outcome was assigned to Cn1nc(-c2ccccn2)nc2c(=O)n(C)c(=O)nc1-2 ?
Response: YES
